- ASSAY_TARGET: T1, human SLC34A2 (human, UniProt O95436 1-690)
- T1 sequence (looked up): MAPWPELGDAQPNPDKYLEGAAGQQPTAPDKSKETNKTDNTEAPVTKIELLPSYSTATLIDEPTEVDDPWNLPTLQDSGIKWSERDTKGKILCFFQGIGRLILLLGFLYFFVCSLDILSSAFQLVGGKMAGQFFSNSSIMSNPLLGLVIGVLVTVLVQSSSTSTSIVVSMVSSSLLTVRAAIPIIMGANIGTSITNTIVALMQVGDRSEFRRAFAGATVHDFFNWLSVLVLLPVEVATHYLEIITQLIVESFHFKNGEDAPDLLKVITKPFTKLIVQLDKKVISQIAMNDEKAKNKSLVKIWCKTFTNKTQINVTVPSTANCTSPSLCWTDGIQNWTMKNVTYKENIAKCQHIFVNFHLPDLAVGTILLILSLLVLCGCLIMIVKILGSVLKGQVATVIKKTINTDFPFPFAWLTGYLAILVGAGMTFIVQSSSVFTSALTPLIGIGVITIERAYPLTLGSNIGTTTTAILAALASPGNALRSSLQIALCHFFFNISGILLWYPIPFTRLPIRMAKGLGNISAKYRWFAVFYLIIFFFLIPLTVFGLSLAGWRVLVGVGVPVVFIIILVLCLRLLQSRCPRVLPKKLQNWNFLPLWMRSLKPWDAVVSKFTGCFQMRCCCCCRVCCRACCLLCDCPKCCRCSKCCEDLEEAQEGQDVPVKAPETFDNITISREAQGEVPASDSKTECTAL
- METHOD: cell-based or functional assay
VALUE_TYPE: cytotoxicity Inhibition % (%)
Numbers only; they are read as %.

Some binders with recorded cytotoxicity Inhibition %:
BINDER	cytotoxicity Inhibition %, %
xi84F2D10 hIgG1 (antibody, V domains shown, chimeric, hIgG1) VH: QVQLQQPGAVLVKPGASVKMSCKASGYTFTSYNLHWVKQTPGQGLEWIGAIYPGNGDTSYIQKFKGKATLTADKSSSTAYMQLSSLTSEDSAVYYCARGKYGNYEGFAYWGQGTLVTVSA VL: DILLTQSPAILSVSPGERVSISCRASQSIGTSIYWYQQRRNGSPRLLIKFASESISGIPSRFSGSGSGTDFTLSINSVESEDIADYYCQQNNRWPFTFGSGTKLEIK	102
xi69B11D8 hIgG1 (antibody, V domains shown, chimeric, hIgG1) VH: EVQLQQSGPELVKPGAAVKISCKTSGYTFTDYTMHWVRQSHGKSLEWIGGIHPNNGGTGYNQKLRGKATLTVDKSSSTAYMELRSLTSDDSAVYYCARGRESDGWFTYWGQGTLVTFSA VL: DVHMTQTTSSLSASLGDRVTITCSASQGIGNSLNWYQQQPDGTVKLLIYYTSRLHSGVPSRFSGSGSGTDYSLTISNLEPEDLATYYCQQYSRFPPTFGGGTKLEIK	86.9

Let us move to another entry and its cytotoxicity Inhibition %.
For the binder xi91C9F1 hIgG1 (antibody, V domains shown, chimeric, hIgG1) VH: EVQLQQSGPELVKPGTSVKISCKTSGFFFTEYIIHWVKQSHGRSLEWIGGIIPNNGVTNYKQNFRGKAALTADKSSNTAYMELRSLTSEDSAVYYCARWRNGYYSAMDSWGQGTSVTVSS VL: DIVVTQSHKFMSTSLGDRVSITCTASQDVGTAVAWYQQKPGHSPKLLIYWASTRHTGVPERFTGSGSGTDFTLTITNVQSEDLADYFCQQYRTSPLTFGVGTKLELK , what cytotoxicity Inhibition % is on record?
97.4

// provenance: patent US20240301052A1
